Catalogue of self-splicing fitness (ln) readings, one per entry.
- ASSAY: self-splicing fitness, log relative to wild type (ln ratio); higher = more splicing; Tetrahymena group I intron in knt gene, E. coli kanamycin selection, DiMSum; sequences stand for … in CUCUCU…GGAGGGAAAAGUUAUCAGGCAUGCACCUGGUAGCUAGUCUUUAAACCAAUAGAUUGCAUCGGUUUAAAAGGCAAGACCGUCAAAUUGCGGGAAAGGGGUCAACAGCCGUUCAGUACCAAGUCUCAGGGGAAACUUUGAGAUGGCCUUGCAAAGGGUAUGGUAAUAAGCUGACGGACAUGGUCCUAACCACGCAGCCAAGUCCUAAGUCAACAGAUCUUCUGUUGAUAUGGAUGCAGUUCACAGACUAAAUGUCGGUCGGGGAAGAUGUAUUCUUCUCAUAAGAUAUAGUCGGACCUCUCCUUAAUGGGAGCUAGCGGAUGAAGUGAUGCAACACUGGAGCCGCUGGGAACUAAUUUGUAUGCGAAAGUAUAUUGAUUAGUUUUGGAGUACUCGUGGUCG;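 also: selection with 25 µg/mL kanamycin versus none on LB agar overnight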
- RUN_CONDITIONS: 30 °C

Example entries and their recorded answers appear below.
{"RESIDUE_CODES": "UUUGAGCAAUAUUACGUCGC", "EXPERIMENTAL_RESULT": -3.06}
{"RESIDUE_CODES": "GUGUAGCAAUAUUACGCUGU", "EXPERIMENTAL_RESULT": -2.96}

Please examine the following record next.
GET /value?item= GACCAGCAAUAUUACGCGGG &field=self-splicing fitness (ln) returns -3.03

# credit: the supplement of paper PMC7877785
